# EXPERIMENTAL DETAILS: growth inhibition of DIPG glioma cells, dose response, cell-based, SU-DIPG-XVII, MIPE5.0, CellTiter-Glo, qHTS (AID 1347060);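 on AC50: cells exposed to compound for 48 hours before viability readout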
# CONDITION PARAMETERS: SU-DIPG-XVII viability, CellTiter-Glo ATP luminescence
Records with an inconclusive call do not appear. Active and inactive are the calls of the source. Cut-off not given; nearly all actives show AC50 up to about 26 µM.
Mark one answer only. Choices: true for active, false for inactive

SMILES REPRESENTATION	ASSIGNED CLASS
c1cnc2cc3c(cc2n1)C1CNCC3C1	false

Request: For "CC(C)Cn1cnc2c(N)nc3ccccc3c21" , which call appears in the assay record?
Result: false

Request: Each compound tested received a call. Report the one for "COc1cc([C@@H]2c3cc4c(cc3[C@@H](O[C@@H]3O[C@@H]5CO[C@@H](c6cccs6)O[C@H]5[C@H](O)[C@H]3O)[C@H]3COC(=O)[C@H]23)OCO4)cc(OC)c1O" .
Result: true

Request: For "C[C@]12CCC(=O)C=C1[C@@H]1C[C@@H]1[C@H]1[C@@H]3[C@@H]4C[C@@H]4[C@@]4(CCC(=O)O4)[C@@]3(C)CC[C@@H]12" , which call appears in the assay record?
Result: false

Request: Per the records of this test, what outcome belongs to "O=[N+]([O-])c1cncn1CCN1CCOCC1" ?
Result: false

Request: What call does the record list for "CSCC[C@H](NC(=O)[C@H](Cc1c[nH]c2ccccc12)NC(=O)CCNC(=O)OC(C)(C)C)C(=O)N[C@@H](CC(=O)O)C(=O)N[C@@H](Cc1ccccc1)C(N)=O" ?
Result: false

Request: Hey, what did the test say about "O=S(=O)(c1cccc2cnccc12)N1CCCNCC1" ?
Result: false

Request: What is the recorded call for this compound in the test? "O=c1cc(-c2ccc(O)cc2)oc2cc(O)cc(O)c12"
Result: true

Request: For "COc1ccc(-c2coc3cc(O)cc(O)c3c2=O)cc1" , what call appears in the results of this test?
Result: true

meta.source: PubChem BioAssay
